target: CB2 receptor (Homo sapiens, UniProt P34972); assay: [3H]CP-55,940 radioligand competition binding, CB2; parameters: host or cells: cell membrane preparations; details: [3H]CP-55,940 displacement; read-out: Ki (CB2)
Sequence (P34972 whole entry): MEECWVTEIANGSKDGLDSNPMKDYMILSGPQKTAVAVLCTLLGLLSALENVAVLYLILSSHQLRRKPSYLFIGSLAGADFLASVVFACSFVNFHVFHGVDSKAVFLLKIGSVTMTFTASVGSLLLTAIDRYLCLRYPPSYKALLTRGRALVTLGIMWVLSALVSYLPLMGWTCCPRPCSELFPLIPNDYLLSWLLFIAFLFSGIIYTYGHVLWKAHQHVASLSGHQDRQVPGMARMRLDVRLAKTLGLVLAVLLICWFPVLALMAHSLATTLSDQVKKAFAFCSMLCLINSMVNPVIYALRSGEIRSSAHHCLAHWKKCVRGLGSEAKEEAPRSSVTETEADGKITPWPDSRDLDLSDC
reported_metric: Ki (nM)
All answers are understood in nM, so give the number only.

Q: Could you tell me which Ki is on file for CCCCCCCC(=O)NC(NC(=O)CCCCCCC)c1ccc(N(CC)CC)cc1 [Compound 54] ?
Result: 146

Q: How about this compound: O=C(Cc1ccccc1)NC(/C=C/c1ccccc1)NC(=O)Cc1ccccc1 [Compound 39]
Result: 5680

Q: How about this compound: CCN(CC)c1ccc(CN(c2ccc(Cl)cc2)S(=O)(=O)c2cccc(C)c2)cc1 [Compound 86]
Result: 2.8

Q: How about this compound: CCN(CC)c1ccc(CN(c2ccc(Cl)cc2)S(=O)(=O)c2ccc(Cl)cc2)cc1 [Compound 83]
Result: 36
